MEASURE: melting point

{"STRUCTURE_SMILES_STRING": "CN(C)c1nc(N)nc(Nc2ccc(F)cc2)n1", "melting point": "182 to 199 °C"}
{"STRUCTURE_SMILES_STRING": "CCCc1ccccc1Nc1nc(N)nc(N(C)C)n1", "melting point": "130 to 145 °C"}

Q: Name the recorded melting point of the molecule listed here: CN(C)c1nc(N)nc(N2CCN(c3ccccc3)CC2)n1
Ans: 132 to 139 °C

====

Test system: HepG2 cells
Test: Measurement of gluconeogenesis (14C-lactate)
Format: cell-based
Conditions: Homo sapiens, 100 uM, 24 h treatment, lower is better, read-out: gluconeogenesis (glucose synthesis ability), % control
MEASURE: activity at 100 µM (%)
One number for each entry, in %.

{"MOLECULE": "COc1ccc(Nc2nc(N)nc(N(C)C)n2)cc1 [Example 15]", "TARGET_SYSTEM": "HepG2 cells", "activity at 100 µM [%]": 114}
{"MOLECULE": "COc1ccc(OC)c(Nc2nc(N)nc(N(C)C)n2)c1 [Example 19]", "TARGET_SYSTEM": "HepG2 cells", "activity at 100 µM [%]": 116}
{"MOLECULE": "CN(C)c1nc(N)nc(Nc2ccccc2-c2ccccc2)n1 [Example 38]", "TARGET_SYSTEM": "HepG2 cells", "activity at 100 µM [%]": 13.8}
{"MOLECULE": "CN(C)c1nc(N)nc(Nc2ccccc2O)n1 [Example 43]", "TARGET_SYSTEM": "HepG2 cells", "activity at 100 µM [%]": 83.5}
{"MOLECULE": "CN(C)c1nc(N)nc(NC2CCCCC2)n1 [Example 41]", "TARGET_SYSTEM": "HepG2 cells", "activity at 100 µM [%]": 90.6}
{"MOLECULE": "CN(C)c1nc(N)nc(Nc2ccc(Cl)c(Cl)c2)n1 [Example 17]", "TARGET_SYSTEM": "HepG2 cells", "activity at 100 µM [%]": 15.2}
{"MOLECULE": "CN(C)c1nc(N)nc(Nc2ccccc2F)n1 [Example 30]", "TARGET_SYSTEM": "HepG2 cells", "activity at 100 µM [%]": 85.5}
{"MOLECULE": "CC(C)c1ccc(Nc2nc(N)nc(N(C)C)n2)cc1 [Example 28]", "TARGET_SYSTEM": "HepG2 cells", "activity at 100 µM [%]": 45.4}
{"MOLECULE": "CCc1ccccc1Nc1nc(N)nc(N(C)C)n1 [Example 36]", "TARGET_SYSTEM": "HepG2 cells", "activity at 100 µM [%]": 42.1}
{"MOLECULE": "CN(C)c1nc(N)nc(Nc2ccc3c(c2)CCC3)n1 [Example 23]", "TARGET_SYSTEM": "HepG2 cells", "activity at 100 µM [%]": 10.7}

Hey, quick one: what's activity at 100 µM for each of these?
1. CN(C)c1nc(N)nc(N2CCCCCC2)n1 [Example 34]
2. Cc1ccccc1Nc1nc(N)nc(N(C)C)n1 [Example 33]
3. Cc1cccc(Nc2nc(N)nc(N(C)C)n2)c1 [Example 32]
4. CCCCCCNc1nc(N)nc(N(C)C)n1 [Example 29]
5. CN(C)c1nc(N)nc(Nc2ccc3c(c2)-c2ccccc2C3)n1 [Example 25]
6. CN(C)c1nc(N)nc(Nc2ccc(Cl)cc2)n1 [Example 20]

Ans:
39.4
95.6
66.8
16.3
49.5
84.9

Hey, quick one: what's activity at 100 µM for each of these?
1. Cc1ccc(CNc2nc(N)nc(N(C)C)n2)cc1 [Example 14]
2. COc1cc(Nc2nc(N)nc(N(C)C)n2)cc(OC)c1 [Example 16]
3. CN(C)c1nc(N)nc(N2CCCC2)n1 [Example 35]
4. CCCc1ccc(Nc2nc(N)nc(N(C)C)n2)cc1 [Example 27]
5. CC(Nc1nc(N)nc(N(C)C)n1)c1cccc2ccccc12 (stereo not shown) [Example 21]
6. CN(C)c1nc(N)nc(Nc2cc(Cl)cc(Cl)c2)n1 [Example 24]

Ans:
[75.4, 87.6, 91.4, 30.9, 42.1, 49.9]

Numbers sourced from patent US8722674B2.
